# PROTOCOL_TEXT: Solid phase stability experiment (XRPD, HPLC, TGA after one week)
# Format: physicochemical
# SETTINGS: 5° C. (control), sealed, HPLC
OBSERVED_PROPERTY: Purity (%)
Entry rule: numbers only, all in %.

C=CC(=O)Nc1cc(Nc2ncc(F)c(-c3cnn(C)c3)n2)c(OC)cc1N1CCC(N(C)C)CC1.O=C(O)C[C@H](O)C(=O)O [crystal form D] ... 99.37

So what does the record say about Purity (%) for C=CC(=O)Nc1cc(Nc2ncc(F)c(-c3cnn(C)c3)n2)c(OC)cc1N1CCC(N(C)C)CC1 [the free base of compound of formula X] ?
99.23

For C=CC(=O)Nc1cc(Nc2ncc(F)c(-c3cnn(C)c3)n2)c(OC)cc1N1CCC(N(C)C)CC1.Cl [crystal form A] then?
99.45
